Test system: RXF 393
ASSAY SUMMARY: NCI tumour cell line growth inhibition, 48 h
Active and inactive are the calls of the source. Rule as the data show it: active = GI50 up to about 1.1 µM and inactive = higher.
MEASURED QUANTITY: GI50

Solved entries (count: 3):
Fc1ccc(NC(=S)SCc2ccc3c(c2)OCO3)cc1F | 15.5 µM (inactive)
C=CC[N+]12CN3CN(CN(C3)C1)C2 | 18.5 µM (inactive)
NC(=O)c1ccccc1NC(=O)C(=O)C(c1cnc2ccc([N+](=O)[O-])cc2n1)[N+](=O)[O-] (stereo not given) | > 100 µM (inactive)

Which value of GI50 has been reported for O/N=C1/CCCCCC1NO (stereo not given) in the records?
> 100 µM (inactive)

Which value of GI50 has been reported for `O=c1cc(N2CCOCC2)[nH]c(=O)n1-c1cccc(Cl)c1` in the records?
> 100 µM (inactive)

Which value of GI50 has been reported for `C#CCN(Cc1ccc2nc(-c3ccccc3)c(Cl)nc2c1)c1cc(OC)c(OC)c(OC)c1` in the records?
37.1 µM (inactive)

Which value of GI50 has been reported for `O=C1NC(=S)NC(=O)C1C(c1ccccc1[N+](=O)[O-])C1C(=O)NC(=S)NC1=O.c1ccncc1` in the records?
> 100 µM (inactive)

Which value of GI50 has been reported for `CC(C)(C)c1ccc(C(O)c2ccc(C(C)(C)C)cc2)cc1` in the records?
17.1 µM (inactive)

Which value of GI50 has been reported for `C[C@]12CC/C(=N\O)C=C1CC[C@@H]1[C@@H]2CC[C@]2(C)C(=N/O)/C(=C/c3ccc([N+](=O)[O-])cc3)C[C@@H]12` in the records?
59.6 µM (inactive)

Which value of GI50 has been reported for NC(Cc1ccnnc1)C(=O)O (stereo not given) in the records?
> 100 µM (inactive)

====

System: UACC-257
ASSAY SUMMARY: NCI tumour cell line growth inhibition, 48 h
Calls of active or inactive are those of the source. Cut-off read from the data, not from the text of the source: active = GI50 up to about 1.1 µM and inactive = higher.
MEASURED QUANTITY: GI50

Solved entries (count: 3):
COc1ccc(/N=N/C(=N/NC(=O)c2cc(Cl)ccc2C(=O)c2ccccc2)c2ccc(N(CCC#N)CCC#N)cc2C)cc1 | 27.7 µM (inactive)
O=C(Nc1ccc2[nH]c(C(=O)N3CC(CCl)c4ccc([N+](=O)[O-])cc43)cc2c1)c1cc2ccccc2o1 (centres undefined) | > 1100 µM (inactive)
C/C=C(\C)C(=O)OC1C(C)=C2C(C1OC(=O)CCCC)C(C)(OC(C)=O)CC(OC(=O)CCCC)C1(O)C2OC(=O)C1(C)O (centres undefined) | 9.46 µM (inactive)

Kindly consider the entry below.
Request body: readout GI50, system UACC-257, query Cc1ccc(N2Cc3c(ccc4ccccc34)OP2(=O)Oc2ccc(Cl)c(C)c2)cc1 (centres undefined) . Return the value.
> 100 µM (inactive)

====

System: NCI-H226
ASSAY SUMMARY: NCI tumour cell line growth inhibition, 48 h
Activity calls are given as the source filed them. No stated cut-off is given here; in the data, active = GI50 up to about 1.1 µM and inactive = higher.
Thanks in advance; please answer with one of these: Yes (active), No (inactive)

Would you mind telling me which call this test gave `O=C1[C@@H]2C[C@@H](O)CN2C(=O)c2ccccc2N1CCCO` ?
No

Would you mind telling me which call this test gave `O=c1cc(N2CCOCC2)[nH]c(=O)n1-c1cccc(Cl)c1` ?
No

Would you mind telling me which call this test gave `C/C(CC/C(C)=N/O)=N\O` ?
No

Would you mind telling me which call this test gave `O=C1C(Cl)=C(N2CCSCC2)C(=O)c2c(O)ccc(O)c21` ?
Yes

Would you mind telling me which call this test gave `COc1ccc2[nH]cc(C(=O)C(=O)NC34CC5CC(CC(C5)C3)C4)c2c1` ?
No

Would you mind telling me which call this test gave `Cc1cnc2nc(-c3ccc4ccccc4c3)cc(O)c2c1` ?
Yes

Would you mind telling me which call this test gave `CC(C)=Cc1cc(C(=O)Nc2ccc(Cl)c(Cl)c2)nc(N)n1` ?
No

Would you mind telling me which call this test gave `CC[C@H]1C=CCC[C@@]2(C[C@@H]3CC[C@@H]4[C@H](C(=O)OCCCCCCCCCCCCCCCC(=O)N(CCCN)CCCCN)[C@]5(CCC[C@@H](C)O5)NC(=[N+]34)N2)O1` ?
Yes

Would you mind telling me which call this test gave `O/N=C\C(=N/O)Nc1ccc(Cc2ccc(NC(/C=N\O)=N/O)cc2)cc1` ?
No

Would you mind telling me which call this test gave `O=S(=O)(O)c1ccc(O)c(/N=N/c2c(O)ccc3ccccc23)c1` ?
No

====

Measured GI50 by item
System: SK-MEL-5
ASSAY SUMMARY: NCI tumour cell line growth inhibition, 48 h
Activity calls are given as the source filed them. Rule as the data show it: active = GI50 up to about 1.1 µM and inactive = higher. Non-standard residues stand in square brackets, D forms with d. Residues, ends and D or L forms follow the SMILES beside them. *: point of attachment. Cbz = O=C(OCc1ccccc1)*; Boc = CC(C)(C)OC(=O)*; Aib = CC(C)(N)C(=O)O; OBn = c1ccc(CO*)cc1; OtBu = CC(C)(C)O*; βAla = NCCC(=O)O

Solved entries (count: 5):
CC(C)(C)OC(=O)CC(NC(=O)OC(C)(C)C)C(=O)NC(CCCCNC(=O)OCc1ccccc1)C(=O)NC(C)(C)C(=O)NCCC(=O)OCc1ccccc1 (stereo unspecified) (Boc-D(OtBu)K(Cbz)[Aib][βAla]-OBn; configuration not given here) | > 100 µM (inactive)
COc1ccc(C(=O)c2cc(OC)c(OC)c(OC)c2)cc1OC | 4.44 µM (inactive)
CCOc1ccc(NC(=O)C(=O)CC(=O)c2c(C)[n+]([O-])c3ccccc3[n+]2[O-])cc1 | > 100 µM (inactive)
O=S(=O)(O)c1ccc(O)c(/N=N/c2c(O)ccc3ccccc23)c1 | > 100 µM (inactive)
C=C1CC(C)(COc2ccc3c(C)c(C)c(=O)oc3c2C)OC1=O (stereo unspecified) | 1.68 µM (inactive)

Kindly consider the entry below.
Which value of GI50 has been reported for C1CN2N3CCCC23C1 (stereo unspecified) in the records?
> 100 µM (inactive)

====

System: SK-MEL-2
ASSAY SUMMARY: NCI tumour cell line growth inhibition, 48 h
Calls of active or inactive are those of the source. Rule as the data show it: active = GI50 up to about 1.1 µM and inactive = higher.
Measured GI50 by item

Solved entries (count: 6):
COc1ccc(C(=O)N2CCN(c3ccc4c(c3)OCC(=O)N4)CC2)cc1OC | > 100 µM (inactive)
CN(C)/N=C(/c1nc2ccc(Cl)cc2nc1O)C(O)c1ccc(C(O)/C(=N\N(C)C)c2nc3ccc(Cl)cc3nc2O)cc1 (configuration not stated) | > 100 µM (inactive)
Cc1nc2ccc(S(=O)(=O)Nc3nccs3)cc2c(=O)n1NS(=O)(=O)c1nccs1 | > 100 µM (inactive)
O=C(Nc1ccc2[nH]c(C(=O)N3CC(CCl)c4ccc([N+](=O)[O-])cc43)cc2c1)c1cc2ccccc2o1 (configuration not stated) | > 1100 µM (inactive)
COc1ccc(-n2c(C)nc3ccc(NC4OCC(O)C(O)C4O)cc3c2=O)cc1 (configuration not stated) | > 100 µM (inactive)
N#Cc1cccnc1Cl | > 100 µM (inactive)

Which value of GI50 has been reported for `N#CCCCC[N+]12CN3CN(CN(C3)C1)C2` in the records?
> 100 µM (inactive)

Which value of GI50 has been reported for `COc1ccc(OC)c2c(Nc3ccc(S(=O)(=O)O)c4cc(S(=O)(=O)O)cc(S(=O)(=O)O)c34)cc(C)nc12` in the records?
> 100 µM (inactive)

Which value of GI50 has been reported for `S=C(Cc1ccc2c(c1)Sc1ccccc1O2)N1CCOCC1` in the records?
66.7 µM (inactive)

Which value of GI50 has been reported for `CCOC(=O)c1csc(NC(=O)CCN2CCCCC2)n1` in the records?
> 100 µM (inactive)

Which value of GI50 has been reported for `COc1ccc(/C=N/n2c(C)n[nH]c2=O)c(OC)c1` in the records?
> 100 µM (inactive)

Which value of GI50 has been reported for `CC[C@@]12C=CC(=S)N(CCSc3ccccc3)[C@@H]1c1c(n(S(=O)(=O)c3ccc(OC)cc3)c3ccccc13)CC2` in the records?
> 100 µM (inactive)

Which value of GI50 has been reported for `C/C(CC/C(C)=N/O)=N\O` in the records?
> 100 µM (inactive)

Which value of GI50 has been reported for `Cn1c(=O)c2c(nc3n2CC(=O)N3CCCCl)n(C)c1=O` in the records?
> 100 µM (inactive)

====

Tested on: HL-60
ASSAY SUMMARY: NCI tumour cell line growth inhibition, 48 h
Calls of active or inactive are those of the source. No stated cut-off is given here; in the data, active = GI50 up to about 1.1 µM and inactive = higher.
Thanks in advance; please answer with one of these: true (1) = active, false (0) = inactive

Cc1ccc(S(=O)(=O)NC(=O)NC(CCCCNC(=N)N)C(=O)O)cc1 (stereo not given) | false (0)
O=C1NC2OCC(O)C(O1)C2O (stereo not given) | false (0)
COc1cc2ccc1OCc1cccc(n1)COc1ccc(cc1OC)/C=N\c1ccc(cc1)/N=C\2 | false (0)
CC1OC(OCC2OC(Oc3c(-c4ccc(O)cc4)oc4cc(O)cc(O)c4c3=O)C(OC3OCC(O)(CO)C3O)C(O)C2O)C(O)C(O)C1O (stereo not given) | false (0)
CC[C@]12C=CCN3CCC4(c5cc([C@@]6(C(=O)OC)CC7CN(CCc8c6[nH]c6ccccc86)CC6CCCCC67)c(OC)cc5N(C)C4[C@](O)(C(=O)OC)C1OC(C)=O)[C@@H]32 (stereo not given in full) | true (1)
C=C(NC(=O)C(=C)NC(=O)c1ccc2c(n1)-c1coc(n1)C(=C)NC(=O)C(=C)NC(=O)c1nc(oc1C)C(=C)NC(=O)C(C(C)(C)O)NC(=O)C(=C)NC(=O)c1coc(n1)/C(=C/C)NC(=O)[C@H]([C@@H](C)O)NC(=O)c1csc-2n1)C(N)=O (stereo not given in full) | false (0)
CCC1=CCN(c2ccc(C)cc2)OC1c1ccc(OC)cc1 (stereo not given) | false (0)
CN1CCN(c2cc3[nH]c(-c4ccc(Cl)cc4)nc3cc2F)CC1 | false (0)
O=C1c2ccccc2C(=O)N1CC1(C(=O)O)NCCS1(=O)=O (stereo not given) | false (0)
Nc1nc(Cl)cc(OCC2(CO)CCCCC2)n1 | false (0)

Would you mind telling me which call this test gave `O=c1cc(N2CCOCC2)[nH]c(=O)n1-c1cccc(Cl)c1` ?
false (0)

Would you mind telling me which call this test gave `CC(C)C(=O)/C=C/c1ccc(Br)cc1` ?
false (0)

Where these numbers come from: ChEMBL document CHEMBL1201862
